Every entry's value here was drawn from ChEMBL document CHEMBL5331051.

tested on: Escherichia coli; assay: Antibacterial activity against Escherichia coli KCTC 1682 strain assessed as bacterial growth inhibition measured at 18 to 24 hrs in presence of 4.5 mM KCl by microdilution assay; assay type: functional; conditions: time 18-24 hrs
property: MIC (µM)
Your answer should be a plain number; it is taken to be in µM.

Req: Query (compound): NCCCN(CCCN)c1nc(NCc2ccccc2)nc(N2CC(Cc3ccccc3)N(c3nc(NCc4ccccc4)nc(N(CCCN)CCCN)n3)CC2Cc2ccccc2)n1 (stereo not given) ; field requested: MIC
Resp: 5

Req: Then this compound: NCCN(CCN)c1nc(NCc2ccccc2)nc(N2CC(Cc3ccccc3)N(c3nc(NCc4ccccc4)nc(N(CCN)CCN)n3)CC2Cc2ccccc2)n1 (stereo not given)
Resp: 5.4

Req: Then this compound: N=C(N)NCCNc1nc(NCCNC(=N)N)nc(N2CC(Cc3ccccc3)N(c3nc(NCCNC(=N)N)nc(NCCNC(=N)N)n3)CC2Cc2ccccc2)n1 (stereo not given)
Resp: 9.7

Req: Then this compound: NCCNc1nc(NCCN)nc(N2CC(Cc3ccccc3)N(c3nc(NCCN)nc(NCCN)n3)CC2Cc2ccccc2)n1 (stereo not given)
Resp: 6.1

Req: Then this compound: NCCCCNc1nc(NCCCCN)nc(N2CC(Cc3ccccc3)N(c3nc(NCCCCN)nc(NCCCCN)n3)CC2Cc2ccccc2)n1 (stereo not given)
Resp: 10.4
